ASSAY: in vitro
CONDITION_LABEL: human
ENDPOINT_LABEL: CC50 at 72 h

{"COMPOUND": "Cc1ccccc1NC(=O)c1nc(-c2ccccn2)nc(O)c1O", "ENDPOINT_LABEL": "CC50 at 72 h", "READOUT_VALUE": "> 25 µM"}

Hey, quick one: what's CC50 at 72 h for each of these?
1. COc1ccc(NC(=O)c2nc(-c3ccccn3)nc(O)c2O)c(C)c1
2. O=C(NC1CCCc2ccccc21)c1nc(-c2ccccn2)[nH]c(=O)c1O (stereo not shown)
3. CC(CNC(=O)c1nc(-c2ccccn2)nc(O)c1O)c1ccccc1 (stereo not shown)

Response given:
1. < 25 µM
2. 2.6 µM
3. < 25 µM
